Measured values drawn from patent US20240199623A1 for this set.

Biological target: human wild type-CFTR (Homo sapiens)
Assay: Cell-based YFP assay
Set-up: expressed in transfected cells; host or cells: CHO-K1 (Chinese hamster ovary)
Details: CHO-K1 cells expressing human wild type-CFTR and YFP-H148Q/I152L; forskolin 20 μM = 100% activity; read-out: Cell-based YFP Assay (EC50) Concentration Range
Let's look at some molecules and their measured EC50.

Worked set:
COc1ccc(-c2ccnc3cc(C(=O)Nc4ccc(C(=O)O)cn4)nn23)cc1OC [Compound 78]: 200 to 2000 nM
COc1ccc(-c2ccnc3cc(C(=O)Nc4ccc(C(=O)NCCN5CCN(C)CC5)cc4)nn23)cc1OC [Compound 178]: 200 to 2000 nM

Can you look up the measured EC50 of COc1ccc(-c2ccnc3cc(C(=O)Nc4ccc(N5CCC6(CC5)OCCO6)cc4)nn23)cc1OC [Compound 274] for me?
< 200 nM

Could you do the same for CCN(CC)CCNC(=O)c1ccc(NC(=O)c2cc3nccc(-c4ccc(OC)c(OC)c4)n3n2)cc1 [Compound 221] , please?
≥ 2000 nM

====

Target: human wild type-CFTR (Homo sapiens, UniProt P13569)
Sequence (P13569 whole entry): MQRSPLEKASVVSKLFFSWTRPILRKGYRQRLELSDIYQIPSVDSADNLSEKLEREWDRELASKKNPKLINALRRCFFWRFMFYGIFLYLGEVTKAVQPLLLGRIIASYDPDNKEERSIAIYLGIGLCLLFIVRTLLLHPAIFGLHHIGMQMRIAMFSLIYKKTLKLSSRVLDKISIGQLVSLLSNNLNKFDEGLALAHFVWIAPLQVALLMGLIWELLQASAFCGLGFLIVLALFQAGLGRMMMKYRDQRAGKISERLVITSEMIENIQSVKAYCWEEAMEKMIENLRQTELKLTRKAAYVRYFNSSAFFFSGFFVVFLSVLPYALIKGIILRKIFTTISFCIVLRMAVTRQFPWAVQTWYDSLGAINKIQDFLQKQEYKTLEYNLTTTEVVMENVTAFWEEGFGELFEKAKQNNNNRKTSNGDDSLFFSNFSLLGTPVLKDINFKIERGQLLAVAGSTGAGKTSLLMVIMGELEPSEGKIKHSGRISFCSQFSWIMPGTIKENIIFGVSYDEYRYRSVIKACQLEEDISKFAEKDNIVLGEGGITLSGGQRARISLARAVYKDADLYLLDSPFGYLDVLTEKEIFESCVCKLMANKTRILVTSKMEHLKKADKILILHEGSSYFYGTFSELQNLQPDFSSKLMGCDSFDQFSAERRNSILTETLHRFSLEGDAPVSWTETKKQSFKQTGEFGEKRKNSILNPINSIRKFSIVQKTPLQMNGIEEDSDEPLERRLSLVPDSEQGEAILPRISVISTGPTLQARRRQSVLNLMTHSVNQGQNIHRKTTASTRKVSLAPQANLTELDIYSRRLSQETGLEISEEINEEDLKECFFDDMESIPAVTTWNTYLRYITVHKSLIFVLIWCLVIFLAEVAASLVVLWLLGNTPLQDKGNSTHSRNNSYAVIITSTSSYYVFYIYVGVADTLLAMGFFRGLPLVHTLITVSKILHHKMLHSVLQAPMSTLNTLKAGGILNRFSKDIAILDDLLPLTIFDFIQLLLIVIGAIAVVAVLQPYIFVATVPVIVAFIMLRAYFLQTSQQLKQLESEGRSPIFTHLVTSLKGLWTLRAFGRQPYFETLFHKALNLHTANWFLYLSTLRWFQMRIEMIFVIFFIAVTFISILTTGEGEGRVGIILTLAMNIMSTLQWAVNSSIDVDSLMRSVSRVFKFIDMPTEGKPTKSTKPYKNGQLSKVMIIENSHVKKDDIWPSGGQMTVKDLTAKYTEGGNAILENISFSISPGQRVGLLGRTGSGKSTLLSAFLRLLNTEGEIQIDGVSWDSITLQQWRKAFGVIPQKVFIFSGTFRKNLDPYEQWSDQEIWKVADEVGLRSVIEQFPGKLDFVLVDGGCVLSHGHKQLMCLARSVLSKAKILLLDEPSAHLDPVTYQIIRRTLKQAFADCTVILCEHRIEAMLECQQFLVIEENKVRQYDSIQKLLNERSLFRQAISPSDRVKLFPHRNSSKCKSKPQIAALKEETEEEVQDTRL
Experiment: Cell-based YFP assay
Design: expressed in transfected cells; host or cells: CHO-K1 (Chinese hamster ovary)
Details: CHO-K1 cells expressing human wild type-CFTR and YFP-H148Q/I152L; forskolin 20 μM = 100% activity; read-out: Cell-based YFP Assay (EC50) Concentration Range
measured_quantity: EC50

Worked set:
COc1ccc(-c2ccnc3cc(C(=O)Nc4ccc(NC(=O)[C@H](C)NC(=O)OC(C)(C)C)cc4)nn23)cc1OC: < 200 nM
COc1ccc(-c2ccnc3cc(C(=O)Nc4ccc(F)cc4)nn23)cc1OC: < 200 nM
COc1ccc(-c2ccnc3cc(C(=O)N4CC[C@@H](NC(=O)c5ccccc5)C4)nn23)cc1OC: < 200 nM
CC[C@H]1CN(C(=O)c2cc3nccc(-c4ccc(OC)c(OC)c4)n3n2)CCN1C(=O)c1ccccc1: < 200 nM
COc1ccc(-c2ccnc3cc(C(=O)NN4CCOCC4)nn23)cc1OC: ≥ 2000 nM
COc1ccc(-c2ccnc3cc(C(=O)N[C@H]4CC[C@H](C(=O)N5CCN(C(=O)OC(C)(C)C)CC5)CC4)nn23)cc1OC: 200 to 2000 nM

Can you look up the measured EC50 of "COc1ccc(-c2ccnc3cc(C(=O)Nc4ccc(N5CCN(C(C)C)CC5)cc4)nn23)cc1OC" for me?
< 200 nM

Could you do the same for "COc1ccc(-c2ccnc3cc(C(=O)Nc4ccc(C(=O)N5CCN(c6ccccn6)CC5)cc4)nn23)cc1OC" , please?
< 200 nM

Could you do the same for "COc1ccc(-c2ccnc3cc(C(=O)N4CCN(S(=O)(=O)c5ccccc5)[C@@H](C)C4)nn23)cc1OC" , please?
< 200 nM

Could you do the same for "COc1ccc(-c2ccnc3cc(C(=O)N4CCc5ccc(C(=O)O)cc54)nn23)cc1OC" , please?
≥ 2000 nM

Could you do the same for "CCOc1ccc(NC(=O)c2cc3nccc(-c4cccs4)n3n2)cc1" , please?
≥ 2000 nM
